Observed IC50 values for 72 kDa type IV collagenase (Homo sapiens, UniProt P08253) are listed in what follows.
Readout Name: IC50 (nM)

Substance Smiles | Assay System | Reported Result
O=C1NC(=O)C(c2ccc(Oc3ccccc3)cc2)(N2CCN(CCOCCOCCOCCNC(=O)c3ccc(F)cc3)CC2)C(=O)N1 | 72 kDa type IV collagenase (Homo sapiens, UniProt P08253) | 5
O=C1NC(=O)C(c2ccc(-c3ccccc3)cc2)(N2CCN(c3ccc([N+](=O)[O-])cc3)CC2)C(=O)N1 | 72 kDa type IV collagenase (Homo sapiens, UniProt P08253) | 23
O=C1NC(=O)C(NCc2cn(CCOCCOCCOCCOc3cccnc3F)nn2)(c2ccc(Oc3ccccc3)cc2)C(=O)N1 | 72 kDa type IV collagenase (Homo sapiens, UniProt P08253) | 29
O=C1NC(=O)C(c2ccc(Oc3ccccc3)cc2)(N2CCN(CCOCCOCCOCCn3cc(COC(=O)c4ccc(F)cc4)nn3)CC2)C(=O)N1 | 72 kDa type IV collagenase (Homo sapiens, UniProt P08253) | 22
O=C1NC(=O)C(NCc2cn(CCOCCOCCOCCF)nn2)(c2ccc(Oc3ccccc3)cc2)C(=O)N1 | 72 kDa type IV collagenase (Homo sapiens, UniProt P08253) | 64
O=C1NC(=O)C(c2ccc(Oc3ccccc3)cc2)(N2CCN(CCOCCOCCOCCOCc3cn(CCF)nn3)CC2)C(=O)N1 | 72 kDa type IV collagenase (Homo sapiens, UniProt P08253) | 58
CN(Cc1cn(CCOCCOCCOCCN2CCN(C3(c4ccc(Oc5ccccc5)cc4)C(=O)NC(=O)NC3=O)CC2)nn1)S(=O)(=O)c1ccc(F)cc1 | 72 kDa type IV collagenase (Homo sapiens, UniProt P08253) | 12

----------
Observed log10(IC50) values for Matrix metalloproteinase-9 (Homo sapiens) are listed in what follows.
Readout Name: log10(IC50) (log10 of the value in nM)

Substance Smiles | Assay System | Reported Result
O=C1NC(=O)C(c2ccc(Oc3ccccc3)cc2)(N2CCN(CCOCCOCCOCCNC(=O)c3ccc(F)cc3)CC2)C(=O)N1 | Matrix metalloproteinase-9 (Homo sapiens) | 0.60
O=C1NC(=O)C(c2ccc(-c3ccccc3)cc2)(N2CCN(c3ccc([N+](=O)[O-])cc3)CC2)C(=O)N1 | Matrix metalloproteinase-9 (Homo sapiens) | 0.85
O=C1NC(=O)C(c2ccc(Oc3ccccc3)cc2)(N2CCN(CCOCCOCCOCCOCc3cn(CCOCCOCCOCCOc4cccnc4F)nn3)CC2)C(=O)N1 | Matrix metalloproteinase-9 (Homo sapiens) | 1.75
O=C1NC(=O)C(c2ccc(Oc3ccccc3)cc2)(N2CCN(CCOCCOCCOCCn3cc(CNS(=O)(=O)c4ccc(F)cc4)nn3)CC2)C(=O)N1 | Matrix metalloproteinase-9 (Homo sapiens) | 1.30
O=C1NC(=O)C(c2ccc(Oc3ccccc3)cc2)(N2CCN(CCOCCOCCOCCn3cc(CCCCOc4cccnc4F)nn3)CC2)C(=O)N1 | Matrix metalloproteinase-9 (Homo sapiens) | 1.78

----------
# key: entry, value: logD
Assay: Octanol-water partition coefficient, log D of the compound at pH 7.4 by gamma counter
Format: physicochemical

Substance Smiles | logD
O=C1NC(=O)C(c2ccc(Oc3ccccc3)cc2)(N2CCN(CCOCCOCCOCCOCc3cn(CC[18F])nn3)CC2)C(=O)N1 | 0.78
O=C1NC(=O)C(c2ccc(Oc3ccccc3)cc2)(N2CCN(CC[18F])CC2)C(=O)N1 | 2.15
O=C1NC(=O)C(c2ccc(-c3ccccc3)cc2)(N2CCN(c3ccc([N+](=O)[O-])cc3)CC2)C(=O)N1 | 2.15

These entries and their values trace back to ChEMBL document CHEMBL1944633.
